# TEST NAME: StAR promoter reporter inhibitors, counter-screen for LRH-1 inverse agonist project, cell-based, luminescence, high throughput (AID 651611)
# COND: StAR promoter luciferase reporter counterscreen, at 3.6 µM, active compounds read high
Mark NO for inhibition values under 20%, and YES for everything at or above.

Solved entries:
COMPOUND	GROUP LABEL
Cc1c(F)cccc1NS(=O)(=O)c1ccc(N2CCCC2=O)cc1	NO
CC1CCC(C(C)C)C(OC(=O)Cn2c(-c3ccc(F)cc3)[n+](C)c3ccccc32)C1 (stereo not given)	YES
O=C(O)C1CCCN1c1nc(-c2ccc(Cl)c(Cl)c2)cc(C(F)(F)F)n1 (stereo not given)	YES
Cc1cc(OCC(=O)Nc2nccs2)c2c(C)c(C)c(=O)oc2c1	YES

--- query ---
Qu. Determine whether measured inhibition meets or exceeds 20% for "N=c1c2c(n(Cc3cccc(Cl)c3)c3c1CCC3)CCCC2"
Ans. YES

* * *

# inhibition per record follows
# TARGET DESC: Nuclear receptor coactivator 1 (Homo sapiens) (UniProt Q15788)
# Sequence (Q15788 whole entry, looked up): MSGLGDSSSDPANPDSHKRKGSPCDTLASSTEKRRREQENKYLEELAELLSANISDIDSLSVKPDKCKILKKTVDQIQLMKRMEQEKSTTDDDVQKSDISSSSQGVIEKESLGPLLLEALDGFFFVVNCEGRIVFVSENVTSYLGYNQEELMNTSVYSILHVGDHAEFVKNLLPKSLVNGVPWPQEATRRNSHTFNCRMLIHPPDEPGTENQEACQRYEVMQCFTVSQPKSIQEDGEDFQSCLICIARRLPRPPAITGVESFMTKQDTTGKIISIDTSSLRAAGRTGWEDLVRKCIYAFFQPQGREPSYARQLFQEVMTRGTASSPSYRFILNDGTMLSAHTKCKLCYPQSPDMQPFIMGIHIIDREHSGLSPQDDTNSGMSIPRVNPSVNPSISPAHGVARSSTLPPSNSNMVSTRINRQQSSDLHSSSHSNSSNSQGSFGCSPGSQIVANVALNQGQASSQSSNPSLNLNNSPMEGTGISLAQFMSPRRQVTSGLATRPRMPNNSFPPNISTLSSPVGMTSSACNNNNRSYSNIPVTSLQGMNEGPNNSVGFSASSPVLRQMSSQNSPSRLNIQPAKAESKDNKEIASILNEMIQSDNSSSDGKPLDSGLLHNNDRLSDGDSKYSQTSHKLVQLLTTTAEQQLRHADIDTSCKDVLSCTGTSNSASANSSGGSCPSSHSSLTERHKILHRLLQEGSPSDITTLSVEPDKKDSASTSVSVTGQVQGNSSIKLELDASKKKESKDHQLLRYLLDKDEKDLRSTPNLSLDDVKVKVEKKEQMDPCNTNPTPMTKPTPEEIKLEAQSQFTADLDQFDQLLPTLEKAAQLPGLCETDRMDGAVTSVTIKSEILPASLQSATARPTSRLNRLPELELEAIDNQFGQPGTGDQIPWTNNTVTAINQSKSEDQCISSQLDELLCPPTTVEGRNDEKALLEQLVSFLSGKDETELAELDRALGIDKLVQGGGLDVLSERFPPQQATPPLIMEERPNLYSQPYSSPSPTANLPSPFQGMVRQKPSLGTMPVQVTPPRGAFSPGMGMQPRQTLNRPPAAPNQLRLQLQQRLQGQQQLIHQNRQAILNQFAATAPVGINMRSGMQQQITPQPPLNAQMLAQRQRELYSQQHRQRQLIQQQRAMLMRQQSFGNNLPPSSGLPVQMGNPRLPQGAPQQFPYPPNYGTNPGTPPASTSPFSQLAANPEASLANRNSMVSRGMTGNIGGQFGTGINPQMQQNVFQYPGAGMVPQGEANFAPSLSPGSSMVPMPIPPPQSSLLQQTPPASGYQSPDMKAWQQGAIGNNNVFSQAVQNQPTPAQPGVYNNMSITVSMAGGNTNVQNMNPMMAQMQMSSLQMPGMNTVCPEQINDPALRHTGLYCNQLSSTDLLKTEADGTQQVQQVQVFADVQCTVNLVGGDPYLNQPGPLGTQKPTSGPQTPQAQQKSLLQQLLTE
# TEST NAME: SRC1 coactivator transcriptional activity inhibitors, confirmation, cell-based, luminescence, quadruplicate (AID 588820);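 further: 0% = DMSO wells and 100% = gossypol 36 µM treated wells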
# COND: HEK293 GAL4-SRC1 luciferase reporter, at 3.6 µM, active compounds read high
Hi! Could you send only the number? It should be in %, unit omitted.

Before answering, review these 6 worked examples.
COMPOUND	UNIT DESCRIPTOR	inhibition
C=CCc1cccc(/C=N/NC(=O)C(C)Nc2ccc(C)cc2)c1O (configuration not stated)	%	6.49
CSC1=NCCCN1C(=O)c1c(-c2ccccc2Cl)noc1C	%	0.66
COc1cccc(NC2=NC3(CCCCC3)N=C(N)N2)c1	%	-9.2
N=c1c2c(n(Cc3ccc(F)cc3)c3c1CCC3)CCCC2	%	13.6
Clc1cncc(Cl)c1N/N=C/c1ccncc1	%	40.4
COc1ccc(CNC(=O)C(c2ccc(C)cc2)N(Cc2cccs2)C(=O)c2ccc3c(c2)OCCO3)cc1 (configuration not stated)	%	-13.9

Qu. So what does the record say about inhibition for "O=c1c2ccccc2nc(N/N=C/c2c(O)ccc3ccccc23)n1O" ?
Ans. 20.9

Qu. Next: "COc1ccc(Cc2nnc(N/N=C/c3ccccc3O)[nH]c2=O)cc1OC"
Ans. 76.7

Qu. Next: CCC(C)OC(=O)C[N+](C)(C)CCOC1CC2CCC1(C)C2(C)C (configuration not stated)
Ans. 5.52

Qu. Next: O=c1c2ccccc2cnn1Cc1n[nH]c(=S)n1C1CC2CCC1C2 (configuration not stated)
Ans. 8.04

Qu. Next: "Cc1cc(C)c2nc(NNC(=O)c3ccc(S(=O)(=O)N4CCc5ccccc5C4)cc3)sc2c1"
Ans. 32.2

Qu. Next: CCCOC(c1ccccc1)(c1ccc(C(F)(F)F)cc1)C(Oc1nc(C)cc(C)n1)C(=O)O (configuration not stated)
Ans. 51.6

Qu. Next: "COc1ccc(-n2ncc3c(N(C)C4CCCCC4)ncnc32)cc1"
Ans. 37.6

Qu. Next: "O=C(Nc1ccc(N2CCN(C(=O)c3ccc(Cl)cc3)CC2)cc1)c1ccc2c(c1)OCCO2"
Ans. 1.25

Qu. Next: "O=C(Nc1ccc(Cc2ccncc2)cc1)c1ccc(S(=O)(=O)N2CCOCC2)cc1"
Ans. -12.7

Qu. Next: "CC1CCN(c2ccc(-c3cccc(NC(=O)C(F)(F)F)c3)nn2)CC1"
Ans. -55.7

Qu. Next: O=C(Nc1nc(-c2ccc(S(=O)(=O)N3CCCC3)cc2)cs1)C1COc2ccccc2O1 (configuration not stated)
Ans. -8.23

Qu. Next: "COC1=CC(=O)c2c(ccc3ncnc(N)c23)C1=O"
Ans. -4.46

Qu. Next: O=C(CS(=O)c1ccc(F)cc1)N1CCOCC1 (configuration not stated)
Ans. -1.56

Qu. Next: "COCCn1c(SCCCC(=O)c2ccc(Br)cc2)nnc1-c1ccncc1"
Ans. -2.26

Qu. Next: O=C(CCl)N1N=C(c2ccco2)CC1c1ccco1 (configuration not stated)
Ans. 32.7

Qu. Next: "COc1ccccc1OCCn1c(C)c(C=O)c2ccccc21"
Ans. 10.8

* * *

# TARGET DESC: Nuclear receptor coactivator 1 (Homo sapiens) (UniProt Q15788)
# TEST NAME: SRC1 coactivator transcriptional activity inhibitors, confirmation, cell-based, luminescence, quadruplicate (AID 588820);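 further: 0% = DMSO wells and 100% = gossypol 36 µM treated wells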
# COND: HEK293 GAL4-SRC1 luciferase reporter, at 3.6 µM, active compounds read high
Numbered stars: 1 amine (or outer) side, 2 acyl side, 3 side chain; on linkers, the order of the positions; unused ones are H or OH. Bridge positions count the residues as written; N and C are the ends. Square brackets hold non-standard residues; d marks the D form. Peptide text beside a SMILES is read from it. ξ: configuration not given here. X1 = CC[C@H](CCC[C@@H](O)[C@@H](C)C(=O)O[C@H](C)[C@@H](C)C/C=C(C)/C(=C\C(=O)[*:1])OC)O[*:2]; NMeξIle = CC[C@H](C)C(NC)C(=O)O; NMeV = CN[C@H](C(=O)O)C(C)C; NMeS = CN[C@@H](CO)C(=O)O
Mark criterion not met for inhibition values under 60%, and criterion met for everything at or above.

Solved entries:
COMPOUND	TARGET DESC	GROUP LABEL
NC(=S)NN=Cc1cc(-c2cccc(N)c2)ccn1	Nuclear receptor coactivator 1 (Homo sapiens) (UniProt Q15788)	criterion met
COc1ccc2[nH]c(=O)c3c(c2c1)OC(C)(C)C=C3	Nuclear receptor coactivator 1 (Homo sapiens) (UniProt Q15788)	criterion met
Cc1nc2ccc(NC(=O)c3cc(S(=O)(=O)N(C)c4ccccc4)ccc3Cl)cc2s1	Nuclear receptor coactivator 1 (Homo sapiens) (UniProt Q15788)	criterion not met

Qu. Determine whether measured inhibition meets or exceeds 60% for "CCOC(=O)N1CCN(CC(=O)Nc2ccc(F)c(F)c2)CC1"
Ans. criterion not met

Qu. Next: "O=[N+]([O-])c1ccc2ncnc(N3CCN(Cc4ccc5c(c4)OCO5)CC3)c2c1"
Ans. criterion met

Qu. Next: "Cc1cn([C@@H](CCCCNC(=O)OC(C)(C)C)C(=O)NCCCCCCCCCCC(=O)N2CCN(C(=O)OC(C)(C)C)CC2)nn1"
Ans. criterion not met

Qu. Next: CC1=C(C(=O)OC2CCCCC2)C(c2ccc(C)o2)C2=C(CC(C)(C)CC2=O)N1 (stereo not drawn)
Ans. criterion not met

Qu. Next: CC[C@@H]1CCC[C@@H](O)[C@@H](C)C(=O)O[C@H](C)[C@@H](C)C/C=C(C)/C(OC)=C\C(=O)N(C)C([C@@H](C)CC)C(=O)N(C)[C@@H](C(C)C)C(=O)N(C)[C@@H](COC)C(=O)N2CCC[C@H]2C(=O)N(C)[C@@H](C(C)C)C(=O)N2CCC[C@H]2C(=O)O1 (stereo partly drawn) ([NMeξIle][NMeV][NMeS](Me)P[NMeV]P; linker N-C via X1)
Ans. criterion not met

* * *

# TEST NAME: VP16 transactivation inhibitors, counter-screen for SRC1 inhibitor project, cell-based, luminescence, high throughput (AID 588824)
# COND: cell-based VP16 transactivation luciferase luminescence; at 3.6 µM; active compounds read high
# inhibition per record follows
Hi! Could you send only the number? It should be in %, unit omitted.

COMPOUND	READOUT VALUE
COc1cc(OC)c2nc(C)c3c(c2c1)N(c1ccc(O)cc1)CC3	30.1
COc1ccc(Nc2nc(N3CCCC3)nc3ccccc23)c(OC)c1	33.2
COc1ccc(Nc2ncnc3ccc(Br)cc23)c(OC)c1	8.18

Qu. So what does the record say about inhibition for "COc1ccc(-c2cc(N3C(=O)Nc4ccccc4N3O)n[nH]2)c(OC)c1" ?
Ans. 20.1

Qu. Next: "CC(C)c1ccc(-c2nnn(CCC(=O)O)n2)cc1"
Ans. 37.5

Qu. Next: CCCCC(=O)NC(c1ccccc1Cl)c1ccc2cccnc2c1O (stereo unspecified)
Ans. 50.9

* * *

# TEST NAME: VP16 transactivation inhibitors, counter-screen for SRC1 inhibitor project, cell-based, luminescence, high throughput (AID 588824)
# COND: cell-based VP16 transactivation luciferase luminescence; at 3.6 µM; active compounds read high
# inhibition per record follows
Hi! Could you send only the number? It should be in %, unit omitted.

Before answering, review these 3 worked examples.
STRUCTURE SMILES STRING	PROPERTY LABEL	UNIT DESCRIPTOR	READOUT VALUE
O=C(COc1ccccc1-c1ccccc1)N/N=C/c1ccncc1	inhibition	%	13.6
COc1ccc(C(=O)Nc2nnc(Cc3cccs3)s2)cc1OC	inhibition	%	52.5
Cc1cccc(Oc2ncnc(N)c2[N+](=O)[O-])c1C	inhibition	%	5.89

Qu. So what does the record say about inhibition for "C=CCOc1ccccc1CNc1ccc2c(c1)OCCO2" ?
Ans. -30.1

Qu. Next: "O=C(CN1C(=O)c2ccccc2S1(=O)=O)N1CCc2ccccc21"
Ans. 65.1

Qu. Next: "CN(C)CCCN1C(=O)c2cccc3c([N+](=O)[O-])ccc(c23)C1=O"
Ans. 0.85
